Tested on: S. pneumoniae 157E
assay.method.text: In vitro minimum inhibitory concentration (MIC) assay, S. pneumoniae
Format: cell-based
Parameters: key: Compounds which showed superior inhibition of S. aureus, S. pseumoniae and E. coli are indicated by “***,”; compounds which showed very good or good inhibition of S. aureus, S. pseumoniae and E. coli are indicated by “**” or “*” respectively; compounds which showed very good or good inhibition of S. aureus, S. pseumoniae and E. coli are indicated by “**” or “*” respectively
condition: broth microdilution in CAMHB, 35° C., approximately 18 hour
readout.label: Median MIC for S. pneumoniae 157E

Quick one: Median MIC for S. pneumoniae 157E for `CN(C)c1cc(-c2ccncc2)c(O)c2c1C[C@H]1C[C@H]3[C@H](N(C)C)C(O)=C(C(N)=O)C(=O)[C@@]3(O)C(O)=C1C2=O` ?
***

Quick one: Median MIC for S. pneumoniae 157E for `CCCNC(=O)c1cc(N(C)C)c2c(c1O)C(=O)C1=C(O)[C@]3(O)C(=O)C(C(N)=O)=C(O)[C@@H](N(C)C)[C@@H]3C[C@@H]1C2` ?
*

Quick one: Median MIC for S. pneumoniae 157E for `CC(=O)c1cc(N(C)C)c2c(c1O)C(=O)C1=C(O)[C@]3(O)C(=O)C(C(N)=O)=C(O)[C@H](N(C)C)[C@@H]3C[C@@H]1C2` ?
*

Quick one: Median MIC for S. pneumoniae 157E for `CN(C)c1cc(C(=O)NCCO)c(O)c2c1C[C@H]1C[C@H]3[C@H](N(C)C)C(O)=C(C(N)=O)C(=O)[C@@]3(O)C(O)=C1C2=O` ?
*

Quick one: Median MIC for S. pneumoniae 157E for `COCC#Cc1cc(N(C)C)c2c(c1O)C(=O)C1=C(O)[C@]3(O)C(=O)C(C(N)=O)=C(O)[C@@H](N(C)C)[C@@H]3C[C@@H]1C2` ?
***

Proceed to the following item.
Quick one: Median MIC for S. pneumoniae 157E for `CN(C)c1cc(C(=O)NC(C)(C)C)c(O)c2c1C[C@H]1C[C@H]3[C@H](N(C)C)C(O)=C(C(N)=O)C(=O)[C@@]3(O)C(O)=C1C2=O` ?
**
